Tested on: Pseudomonas aeruginosa CIP A-22 (=PA)
Assay Summary: MIC in microtitre plates (Example 10)
Type: cell-based
Parameters: unit not given here
Condition Description: microtitre plate, 48 hours at 37° C., ≦20% growth
Test Readout: MIC PA

* NCCCCCCCCCCCCNc1nc(-c2ccccc2)nc(-c2ccc(F)cc2)c1-c1ccccc1 [compound 8] | >120
* NCCN1CCN(c2nc(-c3ccccc3)nc(-c3cccc4ccccc34)c2-c2ccccc2)CC1 [compound 3] | >120
* CCCCCCNc1cc(C)nc(-c2ccc(N)cc2)n1 [compound 120] | >120
* CCCCCCCCCCCCNc1cc(C)nc(-c2csc(C)n2)n1 [compound 94] | >120
* CCCCCCCCNc1cc(C)nc(-c2csc(C)n2)n1 [compound 69] | >120
* CCCCN(C)c1cc(C)nc(-c2csc(C)n2)n1 [compound 129] | >120
* CCCCCCCCCCCCNc1cc(C)nc(-c2ccc(C(C)(C)C)cc2)n1 [compound 85] | <120
* NCCCCCCCCNc1nc(-c2ccccc2)nc(-c2cccc3ccccc23)c1-c1ccccc1 [compound 4] | >120
* CCCCCCCCCCCCNc1cc(C)nc(-c2cccnc2)n1 [compound 36] | 60
* CCCCCCCCNc1cc(C)nc(-c2ccc(-c3ccccc3)cc2)n1 [compound 57] | >120

Field request: MIC PA | item: NCCNCCNc1nc(-c2ccccc2)nc(-c2cccc(C(F)(F)F)c2)c1-c1ccccc1 [compound 18]
120

Field request: MIC PA | item: CCCCCCNc1cc(C)nc(-c2ccc(C)cc2)n1 [compound 115]
>120

Field request: MIC PA | item: CCCCCCCCCCNc1cc(C)nc(-c2csc(C)n2)n1 [compound 106]
>120

Field request: MIC PA | item: CCCCC(CC)CNc1cc(C)nc(-c2ccc(C(C)(C)C)cc2)n1 (stereo not shown) [compound 131]
>120

Field request: MIC PA | item: CCCCCCCCCCCCCCNc1cc(C)nc(-c2ccc(C)cc2)n1 [compound 79]
>120

Field request: MIC PA | item: CCCCC(CC)CNc1cc(C)nc(-c2ccc(C)c(F)c2)n1 (stereo not shown) [compound 140]
>120
